system: AMBEL (Ragweed, Common); assay: Preemergence herbicidal evaluation; assay type: in vivo, Ambrosia artemisifolia; settings: rate 0.1250 kg/ha; rated 4-5 weeks after treatment
Listed next: entries and their corresponding AMBEL preemergence herbicidal rating.
Give the figure only, with no unit attached.

// worked examples, AMBEL preemergence herbicidal rating included
CCOC(=O)CN1C(=O)C(CC(=O)O)S/C1=N/c1cc(-n2c(=O)cc(C(F)(F)F)n(C)c2=O)c(F)cc1Cl (stereo not shown) | 8.5
CCOC(=O)/C=C1/S/C(=N/c2cc(-n3c(=O)cc(C(F)(F)F)n(C)c3=O)c(F)cc2Cl)N(CC(=O)OCC)C1=O | 6.5
CN1C(=O)CS/C1=N/c1cc(-n2c(=O)cc(C(F)(F)F)n(C)c2=O)c(F)cc1Cl | 9.0

Turning to the following compound.
Ask: # query: AMBEL preemergence herbicidal rating of entry CCOC(=O)CN1C(=O)CSC1=Nc1cc(-n2c(=O)cc(C(F)(F)F)n(C)c2=O)c(F)cc1Cl
Result: 8.5

###

test system: GLXMAW (Soybean, Williams); test: Preemergence herbicidal evaluation; assay type: in vivo, Glycine max, (L.) Merr. cv Williams; conditions: rate 0.0313 kg/ha; rated 4-5 weeks after treatment
Listed next: entries and their corresponding GLXMAW preemergence herbicidal rating.
Give the figure only, with no unit attached.

Ask: # query: GLXMAW preemergence herbicidal rating of entry CN1C(=O)CS/C1=N/c1cc(-n2c(=O)cc(C(F)(F)F)n(C)c2=O)c(F)cc1Cl
Result: 6.5

Ask: Ok, now CN(C)N1C(=O)CSC1=Nc1cc(-n2c(=O)cc(C(F)(F)F)n(C)c2=O)c(F)cc1Cl
Result: 0.0

Ask: Ok, now CCOC(=O)CN1C(=O)C(CC(=O)O)S/C1=N/c1cc(-n2c(=O)cc(C(F)(F)F)n(C)c2=O)c(F)cc1Cl (centres unmarked)
Result: 0.7

Ask: Ok, now CCOC(=O)/C=C1/S/C(=N/c2cc(-n3c(=O)cc(C(F)(F)F)n(C)c3=O)c(F)cc2Cl)N(CC(=O)OCC)C1=O
Result: 0.0

Ask: Ok, now CCOC(=O)CN1C(=O)CO/C1=N/c1cc(-n2c(=O)cc(C(F)(F)F)n(C)c2=O)c(F)cc1Cl
Result: 0.0

###

system: ZEAMX (Corn, Field); test: Preemergence herbicidal evaluation; format: in vivo, Zea mays; details: 0.1250 kg/ha, rated 4-5 weeks after treatment
I'd appreciate it if you marked entries TRUE when Preemergence herbicidal rating ZEAMX is lower than 2 and FALSE when it is not.

Solved cases below.
COCCCN1C(=O)CSC1=Nc1cc(-n2c(=O)cc(C(F)(F)F)n(C)c2=O)c(F)cc1Cl | FALSE
Cn1c(C(F)(F)F)cc(=O)n(-c2cc(N=C3SCC(=O)N3C3CCCC3)c(Cl)cc2F)c1=O | TRUE
CC(C)N1C(=O)CSC1=Nc1cc(-n2c(=O)cc(C(F)(F)F)n(C)c2=O)c(F)cc1Cl | FALSE

Consider now this further compound.
Ask: A record lists Cn1c(C(F)(F)F)cc(=O)n(-c2cc(N=C3SCC(=O)N3C3CCC3)c(Cl)cc2F)c1=O . Is its Preemergence herbicidal rating ZEAMX below 2?
Result: TRUE

###

test system: ABUTH (Velvetleaf); experiment: Preemergence herbicidal evaluation; format: in vivo, Abutilon theophrasti; conditions: rate 0.0313 kg/ha; rated 4-5 weeks after treatment
Listed next: entries and their corresponding Preemergence herbicidal rating ABUTH.
Give the figure only, with no unit attached.

// worked examples, Preemergence herbicidal rating ABUTH included
CCOC(=O)[C@H](Cc1ccccc1)N1C(=O)CSC1=Nc1cc(-n2c(=O)cc(C(F)(F)F)n(C)c2=O)c(F)cc1Cl | 1.0
C=CCN1C(=O)C(CC(=O)OC)SC1=Nc1cc(-n2c(=O)cc(C(F)(F)F)n(C)c2=O)c(F)cc1Cl (stereo not drawn) | 9.0
C#CCOC(=O)CC1SC(=Nc2cc(-n3c(=O)cc(C(F)(F)F)n(C)c3=O)c(F)cc2Cl)N(CC=C)C1=O (stereo not drawn) | 9.0
COC(=O)[C@@H](Cc1ccccc1)N1C(=O)CSC1=Nc1cc(-n2c(=O)cc(C(F)(F)F)n(C)c2=O)c(F)cc1Cl | 4.0
CN1C(=O)C(CC(=O)O)SC1=Nc1cc(-n2c(=O)cc(C(F)(F)F)n(C)c2=O)c(F)cc1Cl (stereo not drawn) | 6.0

Ask: # query: Preemergence herbicidal rating ABUTH of entry CCOC(=O)CN1C(=O)C(Cc2ccccc2OCC(=O)O)S/C1=N/c1cc(-n2c(=O)cc(C(F)(F)F)n(C)c2=O)c(F)cc1Cl (stereo not drawn)
Result: 1.0

###

system: SETVI (Foxtail, Green); test: Postemergence herbicidal evaluation; type: in vivo, Setaria viridis; conditions: postemergence, rate 0.0625 kg/ha
MEASUREMENT TYPE: Herbicidal rating SETVI
Give the figure only, with no unit attached.

// worked examples, Herbicidal rating SETVI included
Cc1ccc(CN2C(=O)CSC2=Nc2cc(-n3c(=O)cc(C(F)(F)F)n(C)c3=O)c(F)cc2Cl)cc1Cl [Compound 149] | 0.0
CCOC(=O)CN1C(=O)C(COC)SC1=Nc1cc(-n2c(=O)cc(C(F)(F)F)n(C)c2=O)c(F)cc1Cl (centres unmarked) [Compound 156] | 5.0
Cc1ccccc1CN1C(=O)CSC1=Nc1cc(-n2c(=O)cc(C(F)(F)F)n(C)c2=O)c(F)cc1Cl [Compound 129] | 5.0
CCOC(=O)CN1C(=O)C(C(=O)OC)SC1=Nc1cc(-n2c(=O)cc(C(F)(F)F)n(C)c2=O)c(F)cc1Cl (centres unmarked) [Compound 128] | 4.0

Turning to the following compound.
Ask: # query: Herbicidal rating SETVI of entry Cn1c(C(F)(F)F)cc(=O)n(-c2cc(N=C3SCC(=O)N3CC(=O)OC3CCCC3)c(Cl)cc2F)c1=O [Compound 120]
Result: 9.0

###

system: CASOB (Sicklepod); test: Postemergence herbicidal evaluation; format: in vivo, Cassia obtusifolia; details: postemergence, rate 0.1250 kg/ha
Listed next: entries and their corresponding CASOB herbicidal rating.
Give the figure only, with no unit attached.

C=CCN1C(=O)C(CC(=O)NS(C)(=O)=O)SC1=Nc1cc(-n2c(=O)cc(C(F)(F)F)n(C)c2=O)c(F)cc1Cl (stereo not shown) [Compound 96] | 0.0

Ask: # query: CASOB herbicidal rating of entry CC(C)OC(=O)CC1SC(=Nc2cc(-n3c(=O)cc(C(F)(F)F)n(C)c3=O)c(F)cc2Cl)N(C)C1=O (stereo not shown) [Compound 89]
Result: 9.0

Ask: Ok, now C=CCN1C(=O)CSC1=Nc1cc(N2C(=O)C3=C(CCCC3)C2=O)c(F)cc1Cl [Compound 2]
Result: 2.0

Ask: Ok, now CCC1SC(=Nc2cc(N3C(=O)C4=C(CCCC4)C3=O)c(F)cc2Cl)N(C)C1=O (stereo not shown) [Compound 6]
Result: 0.0

###

system: CASOB (Sicklepod); assay: Postemergence herbicidal evaluation; format: in vivo, Cassia obtusifolia; conditions: postemergence, rate 0.0313 kg/ha
Listed next: entries and their corresponding Herbicidal rating CASOB.

Cn1c(C(F)(F)F)cc(=O)n(-c2cc(N=C3SCC(=O)N3Cc3cccnc3)c(Cl)cc2F)c1=O | 1.0
Cn1c(C(F)(F)F)cc(=O)n(-c2cc(N=C3SCC(=O)N3Cc3ccncc3)c(Cl)cc2F)c1=O | 1.0
CCOC(=O)CN1C(=O)C(COC)SC1=Nc1cc(-n2c(=O)cc(C(F)(F)F)n(C)c2=O)c(F)cc1Cl (stereo not shown) | 0.0

Ask: # query: Herbicidal rating CASOB of entry Cn1c(C(F)(F)F)cc(=O)n(-c2cc(N=C3SCC(=O)N3CC(=O)OCC3CCCCC3)c(Cl)cc2F)c1=O
Result: 3.0

###

test system: ZEAMX (Corn, Field); assay: Preemergence herbicidal evaluation; assay type: in vivo, Zea mays; conditions: preemergence, 0.1250 kg/ha, rated 4-5 weeks after treatment, 0-9 scale
Listed next: entries and their corresponding ZEAMX rating.
Give the figure only, with no unit attached.

// worked examples, ZEAMX rating included
CCOC(=O)CN1C(=O)C(CC(=O)NOC)SC1=Nc1cc(-n2c(=O)cc(C(F)(F)F)n(C)c2=O)c(F)cc1Cl (centres unmarked) | 0.0
C=CCN1C(=O)C(CC(=O)NS(C)(=O)=O)SC1=Nc1cc(-n2c(=O)cc(C(F)(F)F)n(C)c2=O)c(F)cc1Cl (centres unmarked) | 0.0
CN1C(=O)C(CC(=O)OCCF)SC1=Nc1cc(-n2c(=O)cc(C(F)(F)F)n(C)c2=O)c(F)cc1Cl (centres unmarked) | 1.0
CCOC(=O)CN1C(=O)C(CC(=O)NO)S/C1=N/c1cc(-n2c(=O)cc(C(F)(F)F)n(C)c2=O)c(F)cc1Cl (centres unmarked) | 0.0

Turning to the following compound.
Ask: # query: ZEAMX rating of entry C=CCN1C(=O)C(CC(=O)OCCF)SC1=Nc1cc(-n2c(=O)cc(C(F)(F)F)n(C)c2=O)c(F)cc1Cl (centres unmarked)
Result: 0.0
